- target: SHP2 protein (Homo sapiens, UniProt Q06124)
- Sequence (Q06124 1-593): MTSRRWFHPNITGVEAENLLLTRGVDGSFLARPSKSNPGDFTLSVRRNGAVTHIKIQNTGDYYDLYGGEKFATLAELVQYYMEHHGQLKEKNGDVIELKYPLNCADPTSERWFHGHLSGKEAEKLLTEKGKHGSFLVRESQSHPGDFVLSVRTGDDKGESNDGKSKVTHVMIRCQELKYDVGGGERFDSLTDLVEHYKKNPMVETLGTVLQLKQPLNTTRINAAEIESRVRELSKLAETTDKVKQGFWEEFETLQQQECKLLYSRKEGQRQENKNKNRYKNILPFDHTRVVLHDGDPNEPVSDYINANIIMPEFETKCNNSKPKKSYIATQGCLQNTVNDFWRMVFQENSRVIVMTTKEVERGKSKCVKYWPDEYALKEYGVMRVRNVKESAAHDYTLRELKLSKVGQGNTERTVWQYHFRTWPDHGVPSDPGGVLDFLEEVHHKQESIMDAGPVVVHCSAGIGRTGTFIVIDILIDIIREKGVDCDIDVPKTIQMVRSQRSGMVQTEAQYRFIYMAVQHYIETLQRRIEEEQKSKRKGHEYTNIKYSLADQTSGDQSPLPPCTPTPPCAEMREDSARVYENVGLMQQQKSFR
- assay_explanation: Degradation activity on SHP2 protein in MIA Paca-2 cells (Western blot, DC50)
- Format: cell-based
- Design: endogenous in cells; host or cells: MIA Paca-2 cells
- conditions_used: read-out: Degradation activity for differenct cell lines MIA Paca-2 (DC50)
Where a name gives a salt, the structure may show the parent alone.
result_type: DC50

[[record]]
compound = "CC1(N)CCN(c2cnc(Sc3cccc(NC(=O)CCCCCCCO[C@H]4CCN(c5ccc(C(=O)NCc6ccc7c(c6)CN(C6CCC(=O)NC6=O)C7=O)nn5)C4)c3)cn2)CC1 (stereo partly shown)"
result_type = "DC50"
result = "< 0.1 µM"

[[record]]
compound = "CC1(N)CCN(c2cnc(Sc3cccc(NC(=O)c4ncc(N5CCC(N6CCN(c7ccc(C(=O)NCc8ccc9c(c8)CN(C8CCC(=O)NC8=O)C9=O)nn7)CC6)CC5)cn4)c3)cn2)CC1 (stereo not shown)"
result_type = "DC50"
result = "< 0.1 µM"

[[record]]
compound = "CC1(N)CCN(c2cnc(Sc3cccc(NCc4ccc(CN5CCN(c6ccc(C(=O)NCc7ccc8c(c7)CN(C7CCC(=O)NC7=O)C8=O)nn6)CC5)cc4)c3)cn2)CC1 (stereo not shown)"
result_type = "DC50"
result = "> 1 µM"

[[record]]
compound = "C[C@@H]1OCC2(CCN(c3cnc(Sc4cccc(NCc5ccc(CN6CCN(c7ccc(C(=O)NCc8ccc9c(c8)CN(C8CCC(=O)NC8=O)C9=O)nn7)CC6)cc5)c4)cn3)CC2)[C@@H]1N (stereo partly shown)"
result_type = "DC50"
result = "> 1 µM"

[[record]]
compound = "O=C1CCC(N2Cc3cc(CNC(=O)c4ccc(N5CCC6(CN(CCCCCCC(=O)Nc7cccc(Sc8cnc(N9CCC%10(CCNC%10)CC9)cn8)c7)C6)C5)nn4)ccc3C2=O)C(=O)N1 (stereo not shown)"
result_type = "DC50"
result = "> 1 µM"

[[record]]
compound = "CC1(N)CCN(c2cnc(Sc3cccc(NCc4ccc(N5CCC(N6CCN(c7ccc8c(c7)C(=O)N(C7CCC(=O)NC7=O)C8)CC6)CC5)c(F)c4)c3)cn2)CC1 (stereo not shown)"
result_type = "DC50"
result = "> 1 µM"

[[record]]
compound = "CC1(N)CCN(c2cnc(Sc3cccc(NC(=O)c4cnc(N5CCC(N6CC=C(c7ccc(C(=O)NCc8ccc9c(c8)CN(C8CCC(=O)NC8=O)C9=O)nc7)CC6)CC5)o4)c3)cn2)CC1 (stereo not shown)"
result_type = "DC50"
result = "> 1 µM"

[[record]]
compound = "CC1(N)CCN(c2cnc(Sc3cccc(NC(=O)c4ccc(N5CCC(N6CCN(c7ccc(C(=O)NCc8ccc9c(c8)CN(C8CCC(=O)NC8=O)C9=O)nc7)CC6)CC5)cc4F)c3)cn2)CC1 (stereo not shown)"
result_type = "DC50"
result = "< 0.1 µM"

[[record]]
compound = "CC1(N)CCN(c2cnc(Sc3cccc(NC(=O)c4ccc(N5CCC(N6CC=C(c7cnc(C(=O)NCc8ccc9c(c8)CN(C8CCC(=O)NC8=O)C9=O)c(F)c7)CC6)CC5)c(F)c4)c3)cn2)CC1 (stereo not shown)"
result_type = "DC50"
result = "< 0.1 µM"

[[record]]
compound = "CC1(N)CCN(c2cnc(Sc3cccc(NC(=O)c4ccc(N5CCC(N6CC=C(c7ccc(C(=O)NCc8ccc9c(c8)CN(C8CCC(=O)NC8=O)C9=O)nc7)CC6)CC5)c(F)c4)c3)cn2)CC1 (stereo not shown) [Compound 295, hydrochloride]"
result_type = "DC50"
result = "< 0.1 µM"


---

- target: SHP2 protein (Homo sapiens, UniProt Q06124)
- assay_explanation: Degradation activity on SHP2 protein in MIA Paca-2 cells (Western blot, DC50)
- Assay type: cell-based
- Set-up: endogenous in cells; host or cells: MIA Paca-2 cells
- conditions_used: read-out: Degradation activity for differenct cell lines MIA Paca-2 (DC50)
result_type: DC50

[[record]]
compound = "CC1(N)CCN(c2cnc(Sc3cccc(NC(=O)CCCCCCN4CC5(CCN(c6ccc(C(=O)NCc7ccc8c(c7)CN(C7CCC(=O)NC7=O)C8=O)nn6)C5)C4)c3)cn2)CC1 (stereo not drawn)"
result_type = "DC50"
result = "100 to 1000 nM"

[[record]]
compound = "C[C@@H]1OCC2(CCN(c3cnc(Sc4cccc(NC(=O)[C@H]5C[C@@H]5c5ccc(N6CCN(c7ccc(C(=O)N8CCN(c9ccc%10c(c9)CN(C9CCC(=O)NC9=O)C%10=O)CC8)nn7)CC6)c(F)c5)c4)cn3)CC2)[C@@H]1N (stereo partly drawn)"
result_type = "DC50"
result = "< 100 nM"

[[record]]
compound = "Cc1cc(C(=O)Nc2cccc(Sc3cnc(N4CCC(C)(N)CC4)cn3)c2)ccc1N1CCC(N2CC=C(c3ccc(C(=O)NCc4ccc5c(c4)CN(C4CCC(=O)NC4=O)C5=O)nc3Cl)CC2)CC1 (stereo not drawn)"
result_type = "DC50"
result = "> 1000 nM"

[[record]]
compound = "CC1(N)CCN(c2cnc(Sc3cccc(NC(=O)c4ccc(CN5CCN(c6ccc7c(c6)C(=O)N(C6CCC(=O)NC6=O)C7=O)CC5)cc4)c3)cn2)CC1 (stereo not drawn)"
result_type = "DC50"
result = "> 1000 nM"

[[record]]
compound = "CC1(N)CCN(c2cnc(Sc3cccc(NC(=O)c4cnc(N5CCC(N6CCN(c7ccc(C(=O)NCc8ccc9c(c8)CN(C8CCC(=O)NC8=O)C9=O)nn7)CC6)CC5)cn4)c3)cn2)CC1 (stereo not drawn)"
result_type = "DC50"
result = "< 100 nM"

[[record]]
compound = "CC1(N)CCN(c2cnc(Sc3cccc(NC(=O)c4cnc(N5CCC(N6CC=C(c7ccc(C(=O)NCc8ccc9c(c8)CN(C8CCC(=O)NC8=O)C9=O)nc7)CC6)CC5)cn4)c3)cn2)CC1 (stereo not drawn)"
result_type = "DC50"
result = "100 to 1000 nM"

[[record]]
compound = "CC1(N)CCN(c2cnc(Sc3cccc(NC(=O)C(C)(C)c4ccc(N5CCN(c6ccc(C(=O)NCc7ccc8c(c7)CN(C7CCC(=O)NC7=O)C8=O)nc6)CC5)cc4)c3)cn2)CC1 (stereo not drawn)"
result_type = "DC50"
result = "> 1000 nM"

[[record]]
compound = "C[C@@H]1OCC2(CCN(c3cnc(Sc4cccc(NC(=O)COc5ccc(N6CCN(c7ccc(C(=O)NCc8ccc9c(c8)CN(C8CCC(=O)NC8=O)C9=O)nn7)CC6)cc5)c4)cn3)CC2)[C@@H]1N (stereo partly drawn)"
result_type = "DC50"
result = "< 100 nM"

[[record]]
compound = "Cc1ncsc1-c1ccc([C@H](C)NC(=O)[C@@H]2C[C@@H](O)CN2C(=O)[C@@H](NC(=O)c2cnc(N3CCN(CCCCCCC(=O)Nc4cccc(Sc5cnc(N6CCC(C)(N)CC6)cn5)c4)CC3)nc2)C(C)(C)C)cc1"
result_type = "DC50"
result = "< 100 nM"

[[record]]
compound = "CC1(N)CCN(c2cnc(Sc3cccc(NC(=O)c4ccc(C5=CCC(N6CC=C(c7ccc(C(=O)N8CCN(c9ccc%10c(c9)CN(C9CCC(=O)NC9=O)C%10=O)CC8)nc7)CC6)CC5)cc4)c3)cn2)CC1 (stereo not drawn)"
result_type = "DC50"
result = "< 100 nM"

[[record]]
compound = "Cc1cc(C(=O)Nc2cccc(Sc3cnc(N4CCC(C)(N)CC4)cn3)c2)ccc1N1CCC(N2CC=C(c3cnc(C(=O)NCc4ccc5c(c4)CN(C4CCC(=O)NC4=O)C5=O)c(Cl)c3)CC2)CC1 (stereo not drawn)"
result_type = "DC50"
result = "> 1000 nM"

[[record]]
compound = "C[C@@H]1OCC2(CCN(c3cnc(Sc4cccc(NC(=O)c5ccc(N6CCC(N7CC=C(c8ncc(C(=O)NCc9ccc%10c(c9)CN(C9CCC(=O)NC9=O)C%10=O)cc8F)CC7)CC6)c(F)c5)c4)cn3)CC2)[C@@H]1N (stereo partly drawn)"
result_type = "DC50"
result = "< 100 nM"

[[record]]
compound = "CC1(N)CCN(c2cnc(Sc3cccc(NC(=O)c4ccc(N5CCC(N6CC=C(c7ccc(C(=O)N8CCN(c9ccc%10c(c9)CN(C9CCC(=O)NC9=O)C%10=O)CC8)nc7)C(C)(C)C6)CC5)cc4)c3)cn2)CC1 (stereo not drawn)"
result_type = "DC50"
result = "< 100 nM"

[[record]]
compound = "CC1(N)CCN(c2cnc(Sc3cccc(NC(=O)C4CC45CCC(N4CC=C(c6ccc(C(=O)N7CCN(c8ccc9c(c8)CN(C8CCC(=O)NC8=O)C9=O)CC7)nc6)CC4)CC5)c3)cn2)CC1 (single isomer, unassigned) [Compound 322]"
result_type = "DC50"
result = "> 1000 nM"

[[record]]
compound = "CC1(N)CCN(c2cnc(Sc3cccc(NC(=O)C4CC45CCC(N4CC=C(c6ccc(C(=O)Nc7ccc8c(c7)CN(C7CCC(=O)NC7=O)C8=O)nn6)CC4)CC5)c3)cn2)CC1 (single isomer, unassigned) [Compound 321]"
result_type = "DC50"
result = "< 100 nM"

[[record]]
compound = "Cc1cc(C(=O)Nc2cccc(Sc3cnc(N4CCC(C)(N)CC4)cn3)c2)ccc1N1CCC(N2CC=C(c3ccc(C(=O)NCc4ccc5c(c4)CN(C4CCC(=O)NC4=O)C5=O)nc3F)CC2)CC1 (stereo not drawn)"
result_type = "DC50"
result = "100 to 1000 nM"

[[record]]
compound = "CC1(N)CCN(c2cnc(Sc3cccc(NC(=O)C4CC45CCN(c4ccc(CN6CCN(c7ccc8c(c7)CN(C7CCC(=O)NC7=O)C8=O)CC6)cc4F)CC5)c3)cn2)CC1 (stereo not drawn)"
result_type = "DC50"
result = "> 1000 nM"

[[record]]
compound = "CC1(N)CCN(c2cnc(Sc3cccc(NC(=O)c4ccc(N5CCC(N6CC=C(c7ccc(C(=O)NCc8ccc9c(c8)CN(C8CCC(=O)NC8=O)C9=O)nc7F)CC6)CC5)cc4)c3)cn2)CC1 (stereo not drawn)"
result_type = "DC50"
result = "< 100 nM"

